Below, each entry is listed alongside its reported TGI.
Test system: HOP-62
Protocol Notes: Cytotoxicity against human HOP62 cells after 48 hrs by SRB assay
Assay type: functional
Condition: HOP-62, 48 h, read-out: TGI

Use these answered entries as a reference point.
structure_smiles_string=C#C[C@@]1(O)[C@@H](CO)O[C@@H](n2cc(I)c3c(N)ncnc32)[C@@H]1O result="6.28 to 12 µM"
structure_smiles_string=C#C[C@@]1(O)[C@@H](CO)O[C@@H](n2cc(Br)c3c(N)ncnc32)[C@@H]1O result="4.76 to 100 µM"
structure_smiles_string=C#C[C@@]1(O)[C@@H](CO)O[C@@H](n2ccc3c(N)ncnc32)[C@@H]1O result="7.91 µM"
structure_smiles_string=C#C[C@@]1(O)[C@@H](CO)O[C@@H](n2cc(F)c3c(N)ncnc32)[C@@H]1O result="7.79 µM"

Please examine the following record next.
Request: For the record `C#C[C@@]1(O)[C@@H](CO)O[C@@H](n2cc(Cl)c3c(N)ncnc32)[C@@H]1O` , what value of TGI is listed for HOP-62?
Response: 1.16 to 3.35 µM

* * *

Tested on: CCRF-CEM
Protocol Notes: Antiproliferative activity against human CEM cells after 72 hrs by Coulter counter method
Format: functional, cell-based
Entries and their measured pIC50 follow.
Lab note — pIC50 values are minus log10 of concentrations in M.

Worked cases, pIC50 given:
structure_smiles_string=C#C[C@@]1(O)[C@@H](CO)O[C@@H](n2ccc3c(N)ncnc32)[C@@H]1O readout_number=6.15
structure_smiles_string=C#C[C@@]1(O)[C@@H](CO)O[C@@H](n2cc(Cl)c3c(Cl)ccnc32)[C@@H]1O readout_number=5.89
structure_smiles_string=C#C[C@@]1(O)[C@@H](CO)O[C@@H](n2ccc3c(Cl)ccnc32)[C@@H]1O readout_number=4.07

Proceeding to the next molecule to report its pIC50.
Request: Looking for the measured pIC50 of `C#C[C@@]1(O)[C@@H](CO)O[C@@H](n2cc(Cl)c3c(N)ccnc32)[C@@H]1O` , can you help?
Response: 5.27

* * *

Recorded growth at 0.01 µM values for a group of compounds are listed next.
Tested on: MDA-MB-435
Protocol Notes: Growth inhibition of human MDA-MB-435 cells assessed as cell growth at 10^-8 M incubated for 48 hrs by sulforhodamine B assay relative to control
Assay type: functional
Condition: MDA-MB-435, 48 h, read-out: Activity
Write the answer as a number in %, unit excluded.

structure_smiles_string=C#C[C@@]1(O)[C@@H](CO)O[C@@H](n2ccc3c(N)ncnc32)[C@@H]1O readout_number=92

# context switch: different compound, same growth at 0.01 µM
Request: Which growth at 0.01 µM is listed for `C#C[C@@]1(O)[C@@H](CO)O[C@@H](n2cc(F)c3c(N)ncnc32)[C@@H]1O` ?
Response: 98

* * *

System: Human alphaherpesvirus 3
Protocol Notes: Antiviral activity against thymidine kinase-deficient Varicella Zoster virus Oka strain infected in HELF cells assessed as inhibition of virus-induced plaque formation
Type: functional, organism-based
Condition: Human alphaherpesvirus 3, strain Oka vaccine
Endpoint Label: pEC50
Note on units: pEC50 is unitless, being -log10 of a concentration expressed in mol/L.

Below are worked cases with known answers.
structure_smiles_string=CC[C@@]1(O)[C@@H](CO)O[C@@H](n2cc(Cl)c3c(N)ncnc32)[C@@H]1O readout_number=5.77
structure_smiles_string=C#C[C@@]1(O)[C@@H](CO)O[C@@H](n2cc(Br)c3c(Cl)ccnc32)[C@@H]1O readout_number=5.56
structure_smiles_string=C#C[C@@]1(O)[C@@H](CO)O[C@@H](n2cc(I)c3c(Cl)ccnc32)[C@@H]1O readout_number=5.01
structure_smiles_string=C#C[C@@]1(O)[C@@H](CO)O[C@@H](n2cc(Cl)c3c(Cl)ccnc32)[C@@H]1O readout_number=4.78

Could you now consider this next compound?
Request: Fill blank: measured pEC50 of the compound `C#C[C@@]1(O)[C@@H](CO)O[C@@H](n2cnc3c(N)ncnc32)[C@@H]1O` is ____.
Response: 5.74
